- Experiment Summary: solvent given as SMILES
- Condition Description: in C1COCCO1
absorption maximum vs 400 nm: less than gives fulfilled; not less than gives not fulfilled.

Compound	Class
CCCCN(CCCC)c1ccc(/C=C/c2ccc3nc(/C=C/c4ccc(N(C)C)cc4)c(=O)n(CCC)c3c2)cc1	not fulfilled
O=S(=O)([O-])c1ccc(O)c2ccccc12	fulfilled
COc1ccc2c(c1)CCc1c-2nc(N)c(C#N)c1-c1ccc(Br)cc1	fulfilled
CCC12C(=C3C(=C4c5ccc(-c6ccc(C(C)=O)cc6)cc5S(=O)(=O)C41CC)C(F)(F)C(F)(F)C3(F)F)c1ccc(-c3ccc(C(C)=O)cc3)cc1S2(=O)=O (stereo not drawn)	not fulfilled
CC(C)(C)c1ccc(-c2nc3c4ccc(-c5ccccc5)cc4c4cc(-c5ccccc5)ccc4c3n2-c2ccc(C(C)(C)C)cc2)cc1	fulfilled
c1ccc(-n2c(-c3ccc(-c4ccc(-c5ccc(-c6nc7c8ccccc8c8ccccc8c7n6-c6ccccc6)cc5)cc4)cc3)nc3ccccc32)cc1	fulfilled
N#Cc1nnn(-c2ccnc3cc(Cl)ccc23)c1N	fulfilled

----------
- Experiment Summary: solvent given as SMILES
- Condition Description: in CO
Each entry below carries its reported absorption maximum.
Assay Metric: absorption maximum

> print(dat)
                                    molecule        assay.metric  endpoint.result
 1  CN(CC(O)c1cccc(O)c1)c1ccc([N+](=O)[O-])c(C2CC(c3cccc4ccccc34)=NN2c2ccccc2)c1 (stereo not drawn)  absorption maximum           409 nm
 2  c1cc2ccc3cccc4c(-c5cc(-c6nccs6)nc(-c6nccs6)c5)cc(c1)c2c34  absorption maximum           365 nm
 3  O=[N+]([O-])c1ccc(NCCN(Cc2c3ccccc3cc3ccccc23)c2ccc([N+](=O)[O-])cc2[N+](=O)[O-])c([N+](=O)[O-])c1  absorption maximum           369 nm
 4   COc1ccc(C(=O)/C=C/c2ccc(N(C)C)cc2)cc1OC  absorption maximum           421 nm
 5  CCN1C(=CC2=C([O-])C(=CC3=[N+](CC)c4ccccc4C3(C)C)C2=O)C(C)(C)c2ccccc21  absorption maximum           628 nm
 6  CC1(C)C(/C=C/C2=C(Oc3ccc(CCN=C=S)cc3)C(=C/C=C3/N(CCCS(=O)(=O)[O-])c4ccccc4C3(C)C)/CCC2)=[N+](CCCS(=O)(=O)[O-])c2ccccc21  absorption maximum           765 nm
 7            CSc1sc(C(C)=O)c2nn[nH]c(=O)c12  absorption maximum           396 nm
 8  COc1ccc2cc(-c3ccc(C(F)(F)F)cc3)oc(=O)c2c1  absorption maximum           324 nm
 9  CC(=O)Nc1ccccc1C(=O)OC1CC(C)CCC1C(C)C (stereo not drawn)  absorption maximum           307 nm
10                O=C1C=CC2=Cc3ccccc3B(O)N12  absorption maximum           364 nm
11          N#Cc1nnn(-c2ccnc3cc(Cl)ccc23)c1N  absorption maximum        386.62 nm
12       CNC1=C2C=CC=[N+]2[B-](F)(F)n2cccc21  absorption maximum         394.5 nm
13  O=S(=O)([O-])CCCCN1C=C/C(=C/C=C/C=C/c2cc[n+](CCCCS(=O)(=O)[O-])c3ccccc23)c2ccccc21  absorption maximum           815 nm
14             CN(C)c1ccc2nc(-c3ccccc3)sc2c1  absorption maximum           363 nm
15  O=C1c2ccccc2-c2c(-c3cc(Cl)ccc3O)[nH]c(=O)n21  absorption maximum           393 nm
16  COc1ccc2c(c1)SC1=Nc3sc4cc(OC)ccc4[n+]3CN12  absorption maximum           405 nm
17  C[Si](C)(C)c1ccc2ccc3c([Si](C)(C)C)ccc4ccc1c2c43  absorption maximum           349 nm
18  CN1c2ccccc2C(O)(c2ccccc2)c2cc([N+](=O)[O-])ccc21 (stereo not drawn)  absorption maximum           396 nm
19  CN1/C(=C/C=C(/C=C/c2sc3ccccc3[n+]2C)c2cc(F)cc(F)c2)Sc2ccccc21  absorption maximum           641 nm
20  Cc1ccc(C2=C3C=CC(Cl)=[N+]3[B-](F)(F)n3c(Cl)ccc32)cc1  absorption maximum           508 nm
21  CCOC(=O)COc1ccc(C(c2c(C)[nH]c3ccccc23)c2c(C)[nH]c3ccccc23)cc1OC  absorption maximum           291 nm
22  CCCN1/C(=C/C=C/C=C/C2=[N+](CCC)c3ccccc3C2(C)C)C(C)(C)c2ccccc21  absorption maximum           637 nm
23  Cc1ccc(C2=C3C=CC(C#Cc4ccccc4)=[N+]3[B-](F)(F)n3c(C#Cc4ccccc4)ccc32)cc1  absorption maximum           605 nm
24  CCOC(=O)CCCCCn1c2ccc(C)cc2c(=O)c2cc3c(cc21)c(=O)c1cc(C)ccc1n3CCCCCC(=O)OCC  absorption maximum           540 nm
25  Cc1cc(C)c(B(c2cc(-c3ccc(C(C)(C)C)cc3)sc2-c2sc(-c3ccc(C(C)(C)C)cc3)cc2P(=O)(c2ccccc2)c2ccccc2)c2c(C)cc(C)cc2C)c(C)c1  absorption maximum           396 nm
26  CN1CCN(CCCN2c3ccccc3Sc3ccc(C(F)(F)F)cc32)CC1  absorption maximum           310 nm
27   CCC1=C(C)C2=Cc3cccn3[B-](F)(F)[N+]2=C1C  absorption maximum         504.5 nm
28       O=C1C=C(Nc2ccc(F)cc2)C(=O)c2ccccc21  absorption maximum           461 nm
29                      CCN(CC)c1cccc(C=O)c1  absorption maximum           382 nm
30  c1ccc(-c2c3c(c(-c4ccccc4)c4cc5ccccc5cc24)Cc2c(c(-c4ccccc4)c4cc5ccccc5cc4c2-c2ccccc2)C3)cc1  absorption maximum           388 nm
31   CCOC(=O)C1=CN(Cc2ccccc2)C=C(C(=O)OCC)C1  absorption maximum           371 nm
32       CC1=N/C(=C\c2ccc(N(C)C)cc2)C(=O)N1C  absorption maximum           435 nm
33  CCc1c(C)[nH]c(C2=[N+]3C(=Cc4c(C)c(CC)c(/C=C/c5ccc(N(C)C)cc5)n4[B-]3(F)F)c3ccccc32)c1C  absorption maximum           712 nm
34  CCN(CC)c1ccc(C2=C3C(C)=CC(/C=C/c4ccc(OCCCN=[N+]=[N-])cc4)=[N+]3[B-](F)(F)n3c(C)cc(C)c32)cc1  absorption maximum           570 nm
35  CCN1C(=CC2=C([O-])C(=Cc3sc4ccccc4[n+]3CC)C2=O)Sc2ccccc21  absorption maximum           649 nm
36  CCC1=C(C)C(=O)n2c1cc1c(C)c(CCC(=O)OC)c(C)n1c2=O  absorption maximum           424 nm
37  Cc1cc(O)c(C(C)C)cc1/N=C/c1ccc(C(F)(F)F)cc1  absorption maximum           361 nm
38           CCC1=C(C)c2cc3ccccc3c(=O)n2C1=O  absorption maximum           370 nm
